Molecular target: human insulin-like growth factor-II (IGF-II) (human, UniProt P01344 25-91)
Experiment: cell-based or functional assay
observedProperty: EC50 (nM), mean (n = 2), IGF-II pTYR of hIGF-IR in NIH3T3 cells

Q) Please report the recorded EC50 (nM), mean (n = 2), IGF-II pTYR of hIGF-IR in NIH3T3 cells for mAb 7.158.2 (antibody, V domains shown, Kappa light chain (L5/JK3); also called 7.158.1; 7_158_1) VH: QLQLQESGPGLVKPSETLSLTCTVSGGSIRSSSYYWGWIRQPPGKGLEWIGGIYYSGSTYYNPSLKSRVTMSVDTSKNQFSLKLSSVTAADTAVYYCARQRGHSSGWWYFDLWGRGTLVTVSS VL: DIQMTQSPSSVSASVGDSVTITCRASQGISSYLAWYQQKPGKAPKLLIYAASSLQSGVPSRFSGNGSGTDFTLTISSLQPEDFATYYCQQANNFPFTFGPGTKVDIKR .
A) 11.3 nM

Q) Please report the recorded EC50 (nM), mean (n = 2), IGF-II pTYR of hIGF-IR in NIH3T3 cells for mAb 7.34.1 (antibody, V domains shown, Fully human XenoMouse hybridoma mAb, lambda light chain (V1-13/JL2); also called ATCC PTA-7423) VH: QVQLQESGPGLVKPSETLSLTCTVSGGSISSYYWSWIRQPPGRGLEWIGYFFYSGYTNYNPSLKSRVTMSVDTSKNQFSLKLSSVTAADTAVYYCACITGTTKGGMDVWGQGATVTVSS VL: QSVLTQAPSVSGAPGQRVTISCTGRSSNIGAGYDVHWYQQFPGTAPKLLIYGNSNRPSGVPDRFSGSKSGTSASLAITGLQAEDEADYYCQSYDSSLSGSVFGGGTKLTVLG .
A) 2.5 nM

Q) Please report the recorded EC50 (nM), mean (n = 2), IGF-II pTYR of hIGF-IR in NIH3T3 cells for mAb 7.234.2 (antibody, V domains shown, Kappa light chain (L5/JK3); also called 7.234.1; 7_234_1) VH: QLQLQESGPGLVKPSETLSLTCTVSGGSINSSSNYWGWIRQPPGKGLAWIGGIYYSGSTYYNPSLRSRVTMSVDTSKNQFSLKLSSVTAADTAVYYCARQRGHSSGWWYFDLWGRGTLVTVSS VL: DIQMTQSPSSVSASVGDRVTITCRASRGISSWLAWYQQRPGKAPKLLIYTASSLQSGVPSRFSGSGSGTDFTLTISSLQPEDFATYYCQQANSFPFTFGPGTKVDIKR .
A) 7.7 nM

Q) Please report the recorded EC50 (nM), mean (n = 2), IGF-II pTYR of hIGF-IR in NIH3T3 cells for mAb 7.159.2 (antibody, V domains shown, Fully human XenoMouse hybridoma mAb, lambda light chain (V1-19/JL2); Sister clones 7.159.1 and 7.159.2 are said to be identical; also called 7.159.1; 7_159_1) VH: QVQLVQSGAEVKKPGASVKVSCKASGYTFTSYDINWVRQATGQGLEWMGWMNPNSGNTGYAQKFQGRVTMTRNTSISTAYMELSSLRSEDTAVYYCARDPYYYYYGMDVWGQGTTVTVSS VL: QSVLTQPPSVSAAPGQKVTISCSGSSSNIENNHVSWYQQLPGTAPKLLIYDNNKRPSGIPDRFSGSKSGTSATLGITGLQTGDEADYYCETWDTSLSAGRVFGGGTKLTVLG .
A) 3.1 nM

Q) Please report the recorded EC50 (nM), mean (n = 2), IGF-II pTYR of hIGF-IR in NIH3T3 cells for mAb 7.251.3 (antibody, V domains shown, Fully human XenoMouse hybridoma mAb, lambda light chain (V1-13/JL2); also called ATCC PTA-7422) VH: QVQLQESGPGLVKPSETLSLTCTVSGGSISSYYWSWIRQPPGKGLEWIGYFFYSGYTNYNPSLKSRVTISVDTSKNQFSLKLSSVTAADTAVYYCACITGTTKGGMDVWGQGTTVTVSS VL: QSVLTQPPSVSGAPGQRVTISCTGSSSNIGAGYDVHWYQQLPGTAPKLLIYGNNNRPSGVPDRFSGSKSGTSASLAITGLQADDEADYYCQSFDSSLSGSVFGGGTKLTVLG .
A) 3 nM
